- Test system: SF-295 CNS
- TEST DETAILS: NCI-60 one-dose screen, 48 h
- MEASUREMENT CONDITIONS: 10 µM unless noted
About 83,000 compounds went through this panel and 20% of them were active in at least one assay; those are over-represented in the sample as a whole. Calls of active or inactive are those of the source. How the source made its calls: active means growth percent below 10; inactive means the rest.
Can you answer with just one of these options? active, inactive

Completed entries (count: 6):
CCCCOc1nc2ccc(Cl)cc2cc1/C=C/C(=O)/C=C/c1ccc(OC)cc1 ... inactive
CCc1c2cc(Cl)ccc2n2cc(Cc3ccccc3)[nH]c(=O)c12 ... inactive
COc1ccc(/C=C2\CS(=O)(=O)C/C(=C\c3ccc(OC)cc3)C2=O)cc1 ... active
O=C(NNC(=O)c1ccc([N+](=O)[O-])cc1)c1ccc([N+](=O)[O-])cc1 ... inactive
COC(=O)c1oc2c(C(C)=O)c(OCCN3CCCCC3)ccc2c1C ... inactive
COc1ccccc1S(=O)(=O)Nc1ccc2c3c(cc(-c4cnn(C)c4)nc13)C(=O)N2C ... inactive

**Query** Record lookup: outcome of this test for "NC(=O)C1=C[C@H]2[C@H]3C=C[C@@]2(O)C(=O)O[C@@H]3O1" ?
**Result** inactive

**Query** Record lookup: outcome of this test for O=C(COc1ccc(Cl)cc1Cl)N1N=C(c2ccc(Cl)cc2Cl)CC1(O)c1cc(F)c(Cl)cc1Cl (configuration not stated) ?
**Result** inactive

**Query** Record lookup: outcome of this test for "C#C[C@H](O)/C=C/CCCCCCC#C[C@H](O)CC[C@@H](O)C#CCCCCCC/C=C/[C@@H](O)C#C" ?
**Result** inactive

**Query** Record lookup: outcome of this test for "CC(=O)Nc1ccc(OC(=O)c2ccccc2O)cc1" ?
**Result** inactive

**Query** Record lookup: outcome of this test for "COc1ccc(-c2nnc(SCC(=O)N3CCN(c4cc5c(cc4F)c(=O)c(C(=O)O)cn5C4CC4)CC3)o2)cc1OC" ?
**Result** inactive

**Query** Record lookup: outcome of this test for "CCOc1ccc(-n2c(-c3cc(OC)c(OC)c(OC)c3)nnc2-c2ccc(OC)cc2N)cc1" ?
**Result** inactive
